MEASUREMENT TARGET: T1, human prolactin receptor (PRLR) (human, UniProt P16471 25-622)
T1 sequence: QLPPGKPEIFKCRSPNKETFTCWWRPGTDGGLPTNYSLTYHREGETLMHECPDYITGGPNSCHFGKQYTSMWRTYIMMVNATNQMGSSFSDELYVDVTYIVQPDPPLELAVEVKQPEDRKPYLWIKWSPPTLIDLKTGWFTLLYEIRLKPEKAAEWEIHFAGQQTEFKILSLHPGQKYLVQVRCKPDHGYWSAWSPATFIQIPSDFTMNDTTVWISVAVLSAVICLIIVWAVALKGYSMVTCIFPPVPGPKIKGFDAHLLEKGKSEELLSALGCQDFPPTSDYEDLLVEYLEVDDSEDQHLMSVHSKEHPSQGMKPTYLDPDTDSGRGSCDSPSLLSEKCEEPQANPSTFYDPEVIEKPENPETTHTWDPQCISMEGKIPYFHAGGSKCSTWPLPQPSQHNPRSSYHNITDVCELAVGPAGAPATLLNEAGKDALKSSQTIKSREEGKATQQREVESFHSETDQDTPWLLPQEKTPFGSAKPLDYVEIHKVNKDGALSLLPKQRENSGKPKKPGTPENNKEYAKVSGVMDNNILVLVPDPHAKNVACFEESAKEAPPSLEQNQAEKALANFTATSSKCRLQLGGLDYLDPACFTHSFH
ASSAY OVERVIEW: cell-based or functional assay
ASSAY ENDPOINT: % Kill, MCF7/ATCC cells

| BINDER | REPORTED MEASUREMENT |
| --- | --- |
| H1H6958N2-DM1 (antibody, human IgG1, V domains shown, DM1 conjugated through SMCC linker; attachment residues not stated) VH: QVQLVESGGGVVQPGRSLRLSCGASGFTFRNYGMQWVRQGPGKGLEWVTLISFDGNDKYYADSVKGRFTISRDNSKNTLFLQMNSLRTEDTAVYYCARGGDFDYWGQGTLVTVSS VL: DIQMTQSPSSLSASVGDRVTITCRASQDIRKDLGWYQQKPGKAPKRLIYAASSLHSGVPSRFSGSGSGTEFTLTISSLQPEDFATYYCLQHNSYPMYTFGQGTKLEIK | 70% |
| H1H6953N-mc-VC-PAB-MMD (antibody, human IgG1, V domains shown, MMD conjugated through mc-VC-PAB linker; attachment residues not stated) VH: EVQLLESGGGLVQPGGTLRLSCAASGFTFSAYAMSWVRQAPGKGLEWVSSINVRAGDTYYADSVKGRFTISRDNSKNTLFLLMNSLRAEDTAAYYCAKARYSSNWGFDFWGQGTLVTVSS VL: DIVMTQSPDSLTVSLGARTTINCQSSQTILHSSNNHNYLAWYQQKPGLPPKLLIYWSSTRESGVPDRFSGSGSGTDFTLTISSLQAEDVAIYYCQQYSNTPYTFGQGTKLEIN | 50% |
